Target: CD45 (Homo sapiens)
Construct: incubating the cytosolic portion of CD45 with the compounds and p-nitrophenyl phosphate (pNPP); purchased BIOMOL (Plymouth Meeting, Pa.)
Test: Phosphatase assay using lck 10-mer as substrate
Type: biochemical
Conditions: CD45 phosphatase, lck carboxy-terminal peptide TEGQpYQPQP substrate, pH 7.2; read-out: Ick IC50
readout_label: IC50 (µM)
Return type: number; implicit unit µM.

// worked examples, IC50 included
COC(=O)CCCC(=O)Nc1ccc2c(c1)-c1ccccc1C(=O)C2=O = 2.9
Nc1ccc2c(c1)C(=O)C(=O)c1cccc([N+](=O)[O-])c1-2 = 2.6
CCCC(=O)Nc1ccc2c(c1)-c1ccccc1C(=O)C2=O = 5.2
Nc1ccc2c(c1)C(=O)C(=O)c1ccccc1-2 = 2.3
COC(=O)CCCC(=O)Nc1ccc2c(c1)C(=O)C(=O)c1ccccc1-2 = 4.7

What measured IC50 goes with COC(=O)CCC(=O)Nc1cccc2c1-c1ccccc1C(=O)C2=O ? 2.6

What measured IC50 goes with CC(=O)c1ccc2c(c1)C(=O)C(=O)c1ccccc1-2 ? 2.9

What measured IC50 goes with O=C1C(=O)c2cc([N+](=O)[O-])ccc2-c2ccccc21 ? 5.4

What measured IC50 goes with CC(C)(C)C(=O)Nc1ccc2c(c1)-c1ccccc1C(=O)C2=O ? 4.9

What measured IC50 goes with CC(=O)c1ccc2c(c1)-c1ccccc1C(=O)C2=O ? 4.2

What measured IC50 goes with O=C1C(=O)c2ccc(NC(=O)C(Cl)(Cl)Cl)cc2-c2ccccc21 ? 11.6

What measured IC50 goes with Nc1ccc2c(c1)C(=O)C(=O)c1cccc(N)c1-2 ? 2.8

What measured IC50 goes with COC(=O)CCC(=O)Nc1ccc2c(c1)C(=O)C(=O)c1cc(NC(=O)CCC(=O)OC)ccc1-2 ? 2.9

What measured IC50 goes with COC(=O)CCCCCCCCC(=O)Nc1cccc2c1-c1ccccc1C(=O)C2=O ? 4.8

What measured IC50 goes with COC(=O)CCC(=O)Nc1ccc2c(c1)-c1ccccc1C(=O)C2=O ? 3.2

What measured IC50 goes with O=C(Nc1ccc2c(c1)C(=O)C(=O)c1ccccc1-2)c1ccccc1F ? 11

----------
Target: CD45 (Homo sapiens, UniProt P08575)
Construct: incubating the cytosolic portion of CD45 with the compounds and p-nitrophenyl phosphate (pNPP); purchased BIOMOL (Plymouth Meeting, Pa.)
Sequence (P08575 599-1306 limits assumed): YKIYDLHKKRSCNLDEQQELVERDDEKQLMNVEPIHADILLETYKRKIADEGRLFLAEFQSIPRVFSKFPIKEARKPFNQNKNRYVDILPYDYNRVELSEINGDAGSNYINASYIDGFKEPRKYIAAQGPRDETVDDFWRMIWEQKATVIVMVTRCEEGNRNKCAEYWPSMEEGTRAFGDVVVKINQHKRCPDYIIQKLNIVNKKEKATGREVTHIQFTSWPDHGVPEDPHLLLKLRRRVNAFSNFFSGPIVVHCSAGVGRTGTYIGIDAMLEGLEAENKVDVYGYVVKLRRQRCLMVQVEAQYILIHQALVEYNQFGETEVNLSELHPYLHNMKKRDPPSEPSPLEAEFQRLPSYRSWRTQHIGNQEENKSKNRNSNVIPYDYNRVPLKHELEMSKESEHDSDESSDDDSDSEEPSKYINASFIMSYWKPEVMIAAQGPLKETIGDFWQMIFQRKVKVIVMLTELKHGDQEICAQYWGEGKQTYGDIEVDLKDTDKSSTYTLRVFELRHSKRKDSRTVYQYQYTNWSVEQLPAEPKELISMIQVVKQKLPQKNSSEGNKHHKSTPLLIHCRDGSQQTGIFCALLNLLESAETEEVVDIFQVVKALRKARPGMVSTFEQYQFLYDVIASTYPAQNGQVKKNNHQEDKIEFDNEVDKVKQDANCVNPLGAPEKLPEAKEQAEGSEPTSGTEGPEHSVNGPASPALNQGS
Experiment: Phosphatase assay using pNPP as substrate
Format: biochemical
Details: CD45 phosphatase, pNPP substrate, pH 7.0; read-out: pNPP IC50
Method: Phosphatase assay using pNPP as substrate: CD45 enzyme was obtained from BIOMOL (Plymouth Meeting, Pa.). Phosphatase activity was assayed in a buffer containing final concentrations of 25 mM imidazole at pH 7.0, 50 mM NaCl, 2.5 mM ethylenediaminetetraacetic acid (“EDTA”), 5 mM dithiothreitol (“DTT”) and 10 μg/mL bovine serum albumin (“BSA”) using pNPP as a substrate.
Measured pIC50 of individual entries
The scale used: pIC50 is minus the common logarithm of the concentration in molar units.

// worked examples, pIC50 included
O=C1C(=O)c2ccc(NC(=O)C(Cl)(Cl)Cl)cc2-c2ccccc21 = 5.55
COC(=O)CCCC(=O)Nc1ccc2c(c1)-c1ccccc1C(=O)C2=O = 6.10
CC(=O)c1ccc2c(c1)-c1ccccc1C(=O)C2=O = 6.10
O=C(Nc1ccc2c(c1)C(=O)C(=O)c1ccccc1-2)c1ccccc1F = 6.22
CC(C)(C)OC(=O)CNC(=O)c1ccc2c(c1)C(=O)C(=O)c1ccccc1-2 = 6.22
O=C1C(=O)c2cc(NC(=O)C(Cl)(Cl)Cl)ccc2-c2ccccc21 = 6.30

What measured pIC50 goes with CC(C)(C)C(=O)Nc1ccc2c(c1)C(=O)C(=O)c1ccccc1-2 ? 6.70

What measured pIC50 goes with O=C1C(=O)c2c(-c3ccc4ccccc4c3)cccc2-c2ccccc21 ? 5.35

What measured pIC50 goes with O=C1C(=O)c2cc(NC(=O)c3c(Cl)cc(Cl)cc3Cl)ccc2-c2ccccc21 ? 6.30

What measured pIC50 goes with Nc1ccc2c(c1)-c1ccccc1C(=O)C2=O ? 5.43

What measured pIC50 goes with COC(=O)CCCCCCC(=O)Nc1ccc2c(c1)C(=O)C(=O)c1cccc(NC(=O)CCCCCCC(=O)OC)c1-2 ? 6.10

----------
System: T-cell lymphoblasts
readout_label: CC50 (µM)
Return type: number; implicit unit µM.

What measured CC50 goes with O=C1C(=O)c2c(-c3ccc4ccccc4c3)cccc2-c2ccccc21 ? 4.4

----------
Target: CD45 (Homo sapiens, UniProt P08575)
Construct: incubating the cytosolic portion of CD45 with the compounds and p-nitrophenyl phosphate (pNPP); purchased BIOMOL (Plymouth Meeting, Pa.)
Sequence (P08575 599-1306 limits assumed): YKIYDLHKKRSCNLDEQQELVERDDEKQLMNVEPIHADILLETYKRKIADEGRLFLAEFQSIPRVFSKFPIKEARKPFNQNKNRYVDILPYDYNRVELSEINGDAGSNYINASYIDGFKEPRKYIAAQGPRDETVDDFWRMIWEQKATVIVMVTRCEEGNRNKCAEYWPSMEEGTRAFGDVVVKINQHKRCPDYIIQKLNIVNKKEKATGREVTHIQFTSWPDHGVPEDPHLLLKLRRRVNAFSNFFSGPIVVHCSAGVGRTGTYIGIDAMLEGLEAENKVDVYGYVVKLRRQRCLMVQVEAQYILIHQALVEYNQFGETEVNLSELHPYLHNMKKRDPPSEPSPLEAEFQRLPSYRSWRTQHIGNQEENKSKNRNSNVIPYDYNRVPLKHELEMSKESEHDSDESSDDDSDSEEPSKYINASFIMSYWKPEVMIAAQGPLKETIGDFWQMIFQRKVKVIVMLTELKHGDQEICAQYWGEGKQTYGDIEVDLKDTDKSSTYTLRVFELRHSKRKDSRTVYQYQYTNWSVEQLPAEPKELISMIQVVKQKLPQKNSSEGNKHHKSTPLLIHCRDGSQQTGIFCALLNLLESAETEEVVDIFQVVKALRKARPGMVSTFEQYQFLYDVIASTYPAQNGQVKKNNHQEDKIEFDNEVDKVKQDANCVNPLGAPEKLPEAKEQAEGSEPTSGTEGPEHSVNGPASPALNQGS
Assay: Phosphatase assay using pNPP as substrate
Assay type: biochemical
Settings: CD45 phosphatase, pNPP substrate, pH 7.0; read-out: pNPP IC50
Where a SMILES comes first, the peptide text is derived from it. The star is where a group is joined. X1 = O=C1C(=O)c2cc(N*)ccc2-c2ccccc21
readout_label: pIC50
The scale used: pIC50 is minus the common logarithm of the concentration in molar units.

// worked examples, pIC50 included
O=C1C(=O)c2ccc(NC(=O)c3ccccc3C(F)(F)F)cc2-c2ccccc21 = 5.96
CCOc1ccccc1-c1ccc2c(c1)C(=O)C(=O)c1ccccc1-2 = 5.44
CC(=O)Nc1ccc2c(c1)C(=O)C(=O)c1ccccc1-2 = 5.92
COC(=O)CCC(=O)Nc1ccc2c(c1)C(=O)C(=O)c1ccccc1-2 = 5.23
COC(=O)CCCCCCC(=O)Nc1ccc2c(c1)C(=O)C(=O)c1cccc([N+](=O)[O-])c1-2 = 5.96
O=C1C(=O)c2cc(NC(=O)c3ccccc3C(F)(F)F)ccc2-c2ccccc21 = 6.40
O=C1C(=O)c2cc(-c3cc4ccccc4o3)ccc2-c2ccccc21 = 5.43
COC(=O)CCCC(=O)Nc1ccc2c(c1)C(=O)C(=O)c1cccc([N+](=O)[O-])c1-2 = 5.96
Cc1ccc(S(=O)(=O)Nc2ccc3c(c2)C(=O)C(=O)c2ccccc2-3)cc1 = 6.00
CC(=O)N[C@@H](C)C(=O)N[C@H](C(=O)N[C@@H](CCC(=O)O)C(=O)NCC(=O)N[C@@H](CCC(N)=O)C(=O)N[C@@H](CC(=O)Nc1ccc2c(c1)C(=O)C(=O)c1ccccc1-2)C(=O)O)[C@@H](C)O [Example 60] (Ac-ATEGQD(X1)-OH) = 5.70

What measured pIC50 goes with O=C(O)c1ccc2c(c1)-c1ccccc1C(=O)C2=O ? 6.00

What measured pIC50 goes with O=C1C(=O)c2cc([N+](=O)[O-])ccc2-c2ccc([N+](=O)[O-])cc21 ? 5.39

What measured pIC50 goes with COC(=O)CCCCCCCCC(=O)Nc1ccc2c(c1)C(=O)C(=O)c1cccc(NC(=O)CCCCCCCCC(=O)OC)c1-2 ? 5.03

What measured pIC50 goes with O=C(COCc1ccccc1)Nc1ccc2c(c1)C(=O)C(=O)c1ccccc1-2 ? 6.30

What measured pIC50 goes with O=C1C(=O)c2ccc([N+](=O)[O-])cc2-c2ccccc21 ? 6.30
